- Subject of test: Phosphatidylinositol 4,5-bisphosphate 3-kinase catalytic subunit alpha isoform (Homo sapiens, UniProt P42336)
- Sequence (P42336 whole entry, canonical isoform): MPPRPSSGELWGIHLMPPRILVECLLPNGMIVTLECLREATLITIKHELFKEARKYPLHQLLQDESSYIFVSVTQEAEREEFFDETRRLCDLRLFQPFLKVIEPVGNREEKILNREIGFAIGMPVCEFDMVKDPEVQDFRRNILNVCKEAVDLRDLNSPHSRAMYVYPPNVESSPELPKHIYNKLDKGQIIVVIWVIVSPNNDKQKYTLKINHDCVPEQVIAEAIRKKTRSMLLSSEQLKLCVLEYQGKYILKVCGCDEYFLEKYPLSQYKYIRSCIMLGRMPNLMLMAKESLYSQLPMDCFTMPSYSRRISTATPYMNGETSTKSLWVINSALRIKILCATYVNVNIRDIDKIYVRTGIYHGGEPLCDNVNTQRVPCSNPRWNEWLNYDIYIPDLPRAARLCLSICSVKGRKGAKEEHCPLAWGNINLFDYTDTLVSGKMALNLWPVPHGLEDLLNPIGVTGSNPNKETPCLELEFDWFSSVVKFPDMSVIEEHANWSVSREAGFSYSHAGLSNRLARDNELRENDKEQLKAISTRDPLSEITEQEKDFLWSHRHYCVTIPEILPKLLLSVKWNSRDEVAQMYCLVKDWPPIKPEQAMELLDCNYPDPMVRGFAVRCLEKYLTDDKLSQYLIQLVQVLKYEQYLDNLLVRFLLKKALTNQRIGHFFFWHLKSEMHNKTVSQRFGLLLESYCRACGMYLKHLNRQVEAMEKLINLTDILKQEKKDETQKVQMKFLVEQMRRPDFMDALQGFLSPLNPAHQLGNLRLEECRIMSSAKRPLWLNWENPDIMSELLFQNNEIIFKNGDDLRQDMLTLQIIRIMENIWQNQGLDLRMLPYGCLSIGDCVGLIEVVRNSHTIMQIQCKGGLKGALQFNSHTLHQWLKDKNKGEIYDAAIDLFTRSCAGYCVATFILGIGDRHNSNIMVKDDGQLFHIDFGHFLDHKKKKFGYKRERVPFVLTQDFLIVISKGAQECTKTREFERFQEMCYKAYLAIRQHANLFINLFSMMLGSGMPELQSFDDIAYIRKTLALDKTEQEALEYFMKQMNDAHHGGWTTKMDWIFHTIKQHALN
- Assay notes: Inhibition of PI3Kalpha in human HL60 cell lysate by kinobead assay
pIC50: −log10 of the molar value.
The reader will find reported pIC50 values listed item by item below.
Quantity measured: pIC50

# Query smiles, Quantity measured, Test result
records = [
    ("Cc1nc(CCNC(=O)Nc2nc3ccc(-c4cncc(S(=O)(=O)NC(C)(C)C)c4)cn3n2)cs1", "pIC50", 6.10),
    ("CC(C)(C)NS(=O)(=O)c1cncc(-c2ccc3nc(NC(=O)NCCn4nnc(C5CC5)n4)nn3c2)c1", "pIC50", 6.10),
    ("CN1CCN(C(=O)CNC(=O)Nc2nc3ccc(-c4cncc(S(=O)(=O)NC(C)(C)C)c4)cn3n2)CC1", "pIC50", 6.10),
]
